- Tested Target: T1, human serum albumin (human, UniProt P02768 25-609)
- T1 construct: also called HSA
- Procedure Details: SPR, albumin on chip, pH 7.4;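 note: Human, mouse, rat and cynomolgus serum albumins amine-coupled to carboxyl sensor chips, with a hen egg lysozyme surface measured in parallel as negative control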
# Lookup of reported pKd keyed by entry
Lab note: report pKd as minus log10 of the concentration in molar units, number only.

See these solved cases before continuing.
BA11-aminoxy (VNAR, C-terminal aminoxy (intein cleavage with dioxyamine)) VNAR: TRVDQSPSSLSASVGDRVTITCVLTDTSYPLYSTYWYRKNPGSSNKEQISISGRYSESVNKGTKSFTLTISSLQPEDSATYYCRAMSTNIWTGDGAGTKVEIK = 8.95
BA11-C terminal cysteine-maleimide-peg-fluorescein (VNAR, C-terminal cysteine conjugated to maleimide-peg-fluorescein, also called BA11-cys-mal-Fl) VNAR: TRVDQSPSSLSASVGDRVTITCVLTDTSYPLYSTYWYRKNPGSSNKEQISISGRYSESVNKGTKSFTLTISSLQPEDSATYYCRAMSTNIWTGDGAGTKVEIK = 8.96
BA11 C-terminal cysteine derivative (VNAR, additional C-terminal cysteine (intein cleavage with cysteine), also called BA11-cys) VNAR: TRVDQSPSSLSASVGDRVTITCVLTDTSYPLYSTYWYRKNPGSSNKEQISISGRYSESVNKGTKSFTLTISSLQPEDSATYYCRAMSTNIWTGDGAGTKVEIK = 9.12

Consider now this further binder.
Query :: Give the measured pKd for BA11 (humanised HSA-binding VNAR) (VNAR, VNAR) VNAR: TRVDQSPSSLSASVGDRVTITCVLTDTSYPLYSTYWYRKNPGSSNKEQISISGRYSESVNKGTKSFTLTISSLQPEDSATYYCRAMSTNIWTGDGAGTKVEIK
Result :: 9.20
